- Tested target: GST-RIPK2 fusion protein (human RIPK2, amino acids 1-310) (Homo sapiens, UniProt O43353)
- Construct: made in house; host or cells: baculovirus infected Sf9 cells
- Sequence (O43353 1-310): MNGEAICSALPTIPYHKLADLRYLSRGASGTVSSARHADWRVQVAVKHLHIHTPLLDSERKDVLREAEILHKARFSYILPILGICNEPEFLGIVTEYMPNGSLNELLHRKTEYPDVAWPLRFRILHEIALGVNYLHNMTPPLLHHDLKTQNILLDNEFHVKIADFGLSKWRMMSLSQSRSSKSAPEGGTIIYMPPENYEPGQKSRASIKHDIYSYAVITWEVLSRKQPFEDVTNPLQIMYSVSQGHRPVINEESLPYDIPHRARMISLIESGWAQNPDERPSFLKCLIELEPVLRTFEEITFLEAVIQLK
- Procedure summary: RIPK2 binding competition assay (TR-FRET, Tracer 199 displacement)
- Condition description: 10 nM Tracer 199, 1 nM GST-RIPK2, read-out: RIPK2 IC50
IC50: recorded values
Parameter: IC50

[[record]]
molecule = "COc1cc2ncc(-c3cc(F)c(OC)c(NS(=O)(=O)c4cn(C)nc4C)c3)n2cc1S(=O)(=O)C(C)(C)C [Example 279]"
result = "< 1 nM"

[[record]]
molecule = "CC(F)(CO)COc1cc2ncc(-c3cc(F)c(N)nc3F)n2cc1S(=O)(=O)C(C)(C)C (stereo not shown) [Example 204]"
result = "1 to 2.5 nM"

[[record]]
molecule = "CC(C)(C)S(=O)(=O)c1cn2c(-c3cnc4[nH]ncc4c3)cnc2cc1OCCO [Example 222]"
result = "2.5 to 20 nM"

[[record]]
molecule = "COc1cc2ncc(-c3cc(F)c(OC)c4[nH]c(C)nc34)n2cc1S(=O)(=O)C(C)(C)C [Example 118]"
result = "1 to 2.5 nM"

[[record]]
molecule = "COc1cc2ncc(-c3cccc(NS(=O)(=O)C4CCC4)c3)n2cc1S(=O)(=O)C(C)(C)C [Example 152]"
result = "2.5 to 20 nM"

[[record]]
molecule = "COc1cc2ncc(-c3ccc4c(N)n[nH]c4c3)n2cc1S(=O)(=O)C(C)(C)C [Example 103]"
result = "> 20 nM"

[[record]]
molecule = "COc1cc2ncc(-c3cc(F)c(OC)c(NS(=O)(=O)c4cnn(C)c4)c3)n2cc1C1(F)CCNCC1 [Example 276]"
result = "1 to 2.5 nM"

[[record]]
molecule = "COc1cc2ncc(-c3cc(F)c(OC)c4nn(CCO)cc34)n2cc1S(=O)(=O)C(C)(C)C [Example 122]"
result = "> 20 nM"

[[record]]
molecule = "COc1cc2ncc(-c3cc(F)c(N)nc3F)n2cc1S(=O)(=O)C1(C)CCOCC1 [Example 72]"
result = "> 20 nM"

[[record]]
molecule = "COc1cc2ncc(-c3cnc4nc(N)ccc4c3)n2cc1S(=O)(=O)C(C)(C)C [Example 91]"
result = "> 20 nM"

[[record]]
molecule = "COc1cc2ncc(-c3cccc(NS(=O)(=O)CC4CC4)c3)n2cc1S(=O)(=O)C(C)(C)C [Example 151]"
result = "1 to 2.5 nM"

[[record]]
molecule = "C[C@@H](O)COc1cc2ncc(-c3cc4cc[nH]c4nc3F)n2cc1S(=O)(=O)C(C)(C)C [Example 251]"
result = "< 1 nM"

[[record]]
molecule = "COc1cc2ncc(-c3cc(F)c(OC)c(NS(=O)(=O)c4cnn(C)c4C)c3)n2cc1S(=O)(=O)C(C)(C)C [Example 280]"
result = "1 to 2.5 nM"

[[record]]
molecule = "COc1cc2ncc(-c3ccc4c(c3)c(C)nn4C)n2cc1S(=O)(=O)C(C)(C)C [Example 101]"
result = "2.5 to 20 nM"

[[record]]
molecule = "CC(C)(C)S(=O)(=O)c1cn2c(-c3ccc4nccn4c3)cnc2cc1OCCO [Example 208]"
result = "2.5 to 20 nM"

[[record]]
molecule = "CC(C)(C)S(=O)(=O)c1cc2c(-c3cc(Cl)c(N)nc3F)cnn2cc1OCC(O)CO (stereo not shown) [Example 247]"
result = "1 to 2.5 nM"


These measurements were taken from patent US20260137706A1.
